Let's look at some sequences and their measured apparent KD of MS2 coat protein.
System: MS2 coat protein
Assay: apparent KD of MS2 coat protein; designed switch direction (-1 OFF switch, 1 ON switch): -1; higher = weaker reporter binding
Details: input ligand: FMN 200 uM

Some sequences with known apparent KD of MS2 coat protein results, for comparison:
What does the data say about its apparent KD of MS2 coat protein? Entry: AGAUAGUGCUGAGGAUAUCUUAAUAGAAAGAAUAGAGAAGGCGGACAUGAGGAUCACCCAUGUGAGGUCUUGAGACUACAUGGU [Prohibition 36 - Jieux - Exclusion NG 1] (Eterna round: R96, puzzle: Exclusion NG 1)
0.366 µM

What does the data say about its apparent KD of MS2 coat protein? Entry: AAUUAGCAAGCGAGAUCCCACAUGAGGAUCACCCAUGUGCUCGUCUUAUAUAAGGUACUGUACAAAAGUACGGUACC [Mat - Sensor, turn-off var - Eli Mod - D32] (Eterna round: R97, puzzle: Sensor, turn-off variant 1)
0.0145 µM

What does the data say about its apparent KD of MS2 coat protein? Entry: GGAGAGGUAGGAUAUGGAGGUUAAAACAUGAGGAUCACCCAUGUUAAACCUCAUGACCGACUAGAAGGACCAGUCC [AK-MS2ROC-r4-exclusion5-8] (Eterna round: R97, puzzle: Exclusion 5)
0.015 µM

New cases:
What does the data say about its apparent KD of MS2 coat protein? Entry: AAUAACAUGUUGAUCAAAUACAUGAGGAUCACCCAUGUAAGCUUUUUGUUCGUAGAUUAACACUAAUAAUAAUAAUA [Stov1new/2-B] (Eterna round: R97, puzzle: Sensor, turn-off variant 1)
0.0158 µM
